tested_system: Retinoic acid receptor RXR-alpha (Homo sapiens)
protocol: qHTS assay for small molecule antagonists of retinoid X receptor alpha signaling (AID 588546);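 further: cells stimulated with 9-cis-retinoic acid as agonist; on the % scale 0 is the no-effect control and ±100 the full control effect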
study_conditions: HEK293T RXRa-UAS-bla, beta-lactamase ratio, antagonist mode
Results filed as inconclusive are left out.
attribute_measured: max response (%)
Record the value in %, omitting the unit from your answer.

The following molecules have reported results that may help.
{"columns": ["smiles_string", "attribute_measured", "quantitative_readout"],
 "data": [
  ["Cc1cc(O)ccc1Cl", "max response", -4.22],
  ["ClC1=C(Cl)[C@]2(Cl)[C@@H]3[C@@H]4C[C@@H]([C@H]5O[C@@H]45)[C@@H]3[C@@]1(Cl)C2(Cl)Cl", "max response", -14.7],
  ["CC(C)Oc1cccc(NC(=O)c2ccccc2C(F)(F)F)c1", "max response", -12.2],
  ["CCCCCCCCc1ccc(O)cc1", "max response", -17.2],
  ["O=[N+]([O-])c1cc([N+](=O)[O-])c2ccccc2c1", "max response", 12.9]
]}

Record `O=[N+]([O-])c1c(Cl)c(Cl)cc(Cl)c1Cl` / Retinoic acid receptor RXR-alpha (Homo sapiens), max response recorded as 6.87

====

protocol: Immunotoxin (SS1P) sensitization/mitigation study. Vehicle arm (DMEM) (AID 1159513)
study_conditions: cell viability with vehicle (DMEM); series mostly up to 46.1 µM
Activity calls are given as the source filed them. How the calls were made is not given here.
In this exercise, the only acceptable responses are active, inactive

A selection of reference data follows.
{"columns": ["smiles_string", "class_assignment"],
 "data": [
  ["CC(C)(N)C(=O)N[C@H](COCc1ccccc1)C(=O)N1CCC2(CC1)CN(S(C)(=O)=O)c1ccccc12", "active"],
  ["CN(C)C(=O)c1ccc(S(=O)(=O)c2ccc(NC(=O)[C@@](C)(O)C(F)(F)F)c(Cl)c2)cc1", "inactive"]
]}

Input line: Answer briefly: the call reported for `COc1ccc2c(c1)CC[C@H]1[C@@H]2CC[C@]2(C)[C@@H](NCCCCCCN3C(=O)C=CC3=O)CC[C@H]12` in this assay.
Output line: active

====

Test system: Zika virus NS2B-NS3 protease
protocol: Primary screen GU AMC qHTS for Zika virus inhibitors (AID 1347154); further: nearly all actives have a fitted effect of over 70% in size
study_conditions: Zika NS2B-NS3 unlinked protease, AMC fluorogenic substrate; series mostly up to 54.1 µM
Results filed as inconclusive are left out. Calls of active or inactive are those of the source. The call rests on the fitted dose curve; in most records, active means well fitted inhibition curve with a large enough effect; inconclusive means small, poorly fitted or top-dose-only effect; inactive means flat fitted curve, though single readings scatter.
// classify into active, inactive

Known results for compounds:
{"columns": ["compound", "class_assignment"],
 "data": [
  ["O=C(Nc1ccccc1-c1ccc(Cl)cc1)c1cccnc1Cl", "inactive"],
  ["NC1CC1c1ccccc1 (configuration not stated)", "inactive"],
  ["O=C1C(I)=CC(=C(c2cc(I)c(O)c(I)c2)c2ccccc2C(=O)O)C=C1I", "active"],
  ["CN[C@@H](C)[C@H](O)c1ccccc1", "inactive"],
  ["C[C@@H]1CC[C@H]2[C@@H](C)C(=O)O[C@@H]3O[C@@]4(C)CC[C@H]1[C@]32OO4", "inactive"],
  ["CC1(N2CCC(n3c([C@@H]4CCCNC4)nc4ccccc43)CC2)CCCCCCC1", "inactive"],
  ["C=CC(=O)NCNC(=O)C=C", "inactive"],
  ["C[C@@H](N)Cc1cnc[nH]1", "inactive"]
]}

Input line: Hi team, can someone confirm the assay call for `CC(C)(C)NC[C@H](O)c1ccc(O)cc1Cl` ?
Output line: inactive

Input line: So what was the verdict on `COC[C@H]1OC(=O)c2coc3c2[C@@]1(C)C1=C(C3=O)[C@@H]2CC[C@H](O)[C@@]2(C)C[C@@H]1OC(C)=O` in this test?
Output line: inactive

Input line: For this compound, state the assay outcome: `c1ccc2c(CN3CCNCC3)cccc2c1`
Output line: inactive

Input line: Recorded call for `Cc1c(C(=O)c2cccc3ccccc23)c2cccc3c2n1[C@H](CN1CCOCC1)CO3` ?
Output line: inactive

====

protocol: Quantitative High-Throughput drug screen in 47 multiple myeloma cell lines against the NCATS MIPE library collection: Karpas25_ECACC cell viability assay (AID 1918968; further: nearly all actives have a fitted effect of over 35% in size)
study_conditions: Karpas25 myeloma viability, CellTiter-Glo ATP, 48 h; series mostly up to 45.8 µM
Inconclusive results are not listed. Calls of active or inactive are those of the source. The call rests on the fitted dose curve; in most records, active means well fitted cell-killing curve with a large enough effect; inconclusive means small, poorly fitted or top-dose-only effect, or effect the other way; inactive means no such curve, though single readings can be large or run the other way.
Hi there, use one of these labels in your reply, thanks! YES (active), NO (inactive)

Reference set (3 entries):
{"columns": ["molecule", "class_assignment"],
 "data": [
  ["O=S(=O)(F)Cc1ccccc1", "YES"],
  ["CC[C@H]1C=CC=CC[C@@H](C)[C@H](O)[C@@](C)(O)C(=O)[C@@H](C)[C@H](O)[C@@H](C)C(=O)[C@@H](C)[C@H](O)[C@@H](C)C=CC(=O)O[C@@H]2[C@@H](C)[C@H](CC1)O[C@]1(CC[C@H](C)[C@H](C[C@@H](C)O)O1)[C@H]2C", "YES"],
  ["CCCC[N+]1(C)[C@H]2CC(OC(=O)[C@H](CO)c3ccccc3)C[C@H]1[C@H]1O[C@H]12 (stereo partly specified)", "NO"]
]}

Input line: Query: recorded result category for `COc1ccc(C(=O)c2c(C)n(CCN3CCOCC3)c3cc(I)ccc23)cc1` in this test
Output line: YES

Input line: Hello, I am checking results. What call was entered for `CC1(N2CCC(n3c([C@@H]4CCCNC4)nc4ccccc43)CC2)CCCCCCC1` ?
Output line: YES

Input line: Could you check what this test reported for `C[C@@H]1[C@H](O)[C@@H](C)C=CC=CCCC=CC=CC=CC=C[C@H](O[C@H]2O[C@@H](C)[C@H](O)[C@@H](N)[C@@H]2O)CC2O[C@](O)(C[C@@H](O)[C@H](O)CC[C@@H](O)C[C@@H](O)C[C@@H](O)CC(=O)O[C@H]1C)C[C@H](O)[C@H]2C(=O)O` ?
Output line: NO

====

protocol: qHTS for identification of novel therapeutic agents for treatment of microphthalmiaassociated transcription factor (MiT) renal cell carcinoma (RCC) (AID 1963991);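 further: curves scaled with 100% = DMSO viability and 0% = empty wells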
study_conditions: TFE3-RCC viability, CellTiter-Glo, 48 h; measured here: UOK124 Z-AUC; stronger effect = lower value
Results filed as inconclusive are left out.
Measured z-score, listed per entry.
Please reply with the number alone, leaving off any unit.

Consider the following illustrative entries.
{"columns": ["compound", "quantitative_readout"],
 "data": [
  ["CC1=C(O)C(=O)C=C2C1=CC=C1[C@@]2(C)CC[C@@]2(C)[C@@H]3C[C@](C)(C(=O)O)CC[C@]3(C)CC[C@]12C", -1.16],
  ["CC(=O)OCC1=C(C(=O)O)N2C(=O)[C@@H](N)[C@@H]2SC1", 0.735]
]}

Record COc1ccc2c(c1)[C@]13CCCCC1C(C2)N(C)CC3 (stereo partly drawn) . Reported z-score: 0.851

====

protocol: qHTS of pediatric cancer cell lines to identify multiple opportunities for drug repurposing: Primary screen for Saos-2 cells (AID 1347097); further: nearly all actives have a fitted effect of over 40% in size; further: potency means the concentration at half of the fitted maximal effect
study_conditions: Saos-2 viability, CellTiter-Glo ATP luminescence, 48 h; series mostly up to 46 µM
Records with an inconclusive call do not appear. Active and inactive are the calls of the source. The call rests on the fitted dose curve; in most records, active means well fitted cell-killing curve with a large enough effect; inconclusive means small, poorly fitted or top-dose-only effect; inactive means no such curve, though single readings can be large or run the other way.
attribute_measured: Potency

Check out these entries, answers already filled in.
{"columns": ["compound", "result"],
 "data": [
  ["c1cc2c(cc1[C@H]1OC[C@H]3[C@H]1CO[C@H]3c1ccc3c(c1)OCO3)OCO2", "inactive"],
  ["CCOCCOC(C)=O", "inactive"],
  ["CCCCCCCCc1ccc(O)cc1", "39 µM (active)"],
  ["CC(C)(O)C(=O)Nc1ccc([N+](=O)[O-])c(C(F)(F)F)c1", "inactive"],
  ["C[C@]12CC[C@@H]3[C@@H](CCC4=CC(=O)CC[C@@H]43)[C@@H]1CC[C@@H]2OC(=O)CCc1ccccc1", "18.7 µM (active)"],
  ["C=CCON=C(C[C@H]1O[C@@H]2O[C@]3(C)CC[C@@H]4[C@H](C)CC[C@@H]([C@H]1C)[C@@]24OO3)[C@H]1O[C@@H]2O[C@]3(C)CC[C@H]4[C@H](C)CC[C@@H]([C@@H]1C)[C@@]24OO3", "inactive"],
  ["O=C1C=CC[C@@H]2[C@H]3CCCN4CCC[C@@H](CN12)[C@@H]34", "inactive"],
  ["CC(C)N(CCNC(=O)CN1CCCC1=O)C(C)C", "inactive"]
]}

Lab note: COC(C)(C)CCCC(C)C/C=C/C(C)=C/C(=O)OC(C)C (configuration not stated) gave Potency of inactive

# Potency of `C#C[C@]1(O)C=C[C@@H]2[C@@H]3CCC4=CC(=O)CC[C@@H]4[C@H]3CC[C@@]21CC` = inactive

// `CC[C@@H](C(N)=O)N1CCCC1=O` : Potency value = inactive

For `C[C@@]12OC(=O)[C@]1([C@@H](O)[C@@H]1C=CCCC1)NC(=O)[C@H]2CCCl` the compound record lists Potency as 0.0372 µM (active)

Item: COCC1(CO)C(=O)C2CCN1CC2 (configuration not stated) | Potency: 8.33 µM (active)

// recorded Potency for `COc1ccc(C(=O)c2c(C)n(CCN3CCOCC3)c3cc(I)ccc23)cc1` : 18.7 µM (active)
